- Test system: effets β1 (augmentation de la force contractile du myocarde) de l'isoprénaline
- procedure-summary: β-blocking activity: inhibition of the β1 effects of intravenous isoprenaline in anaesthetised dogs
- Type: in vivo, chiens
- condition-info: Canis lupus familiaris, iv; 0,003 mg/kg I.V., dog; inhibition given with negative sign; read-out: % d'inhibition des effets β1^(+) de l'Isoprénaline

# molecule, result-unit, inhibition at 0.003 mg/kg
data = [
    ("CC(C)NCC(O)COc1ccc(NC(=O)Cc2cccs2)cc1F (stereo not drawn) [exemple 48]", "%", -23),
    ("CC(C)(C)NCC(O)COc1ccc(NC(=O)Cc2cccs2)cc1Br (stereo not drawn) [exemple 39]", "%", -65),
    ("CC(C)NCC(O)COc1ccc(NC(=O)Cc2cccs2)cc1Br (stereo not drawn) [exemple 40]", "%", -19),
    ("CC(C)(C)NCC(O)COc1ccc(NC(=O)Cc2cccs2)cc1Cl (stereo not drawn) [exemple 43]", "%", -49),
    ("CC(C)NCC(O)COc1ccc(NC(=O)Cc2cccs2)cc1C#N (stereo not drawn) [exemple 8]", "%", -12),
    ("CC(C)(C)NCC(O)COc1ccc(NC(=O)Cc2cccs2)cc1F (stereo not drawn) [exemple 47]", "%", -33),
    ("C=CCc1cc(NC(=O)Cc2cccs2)ccc1OCC(O)CNC(C)(C)C (stereo not drawn) [exemple 11]", "%", -37),
    ("CC(C)(C)NCC(O)COc1ccc(NC(=O)Cc2ccsc2)cc1Cl (stereo not drawn) [exemple 45]", "%", -60),
    ("CC(C)(C)NCC(O)COc1ccc(NC(=O)Cc2ccsc2)cc1Br (stereo not drawn) [exemple 41]", "%", -49),
    ("C=CCc1cc(NC(=O)Cc2ccsc2)ccc1OCC(O)CNC(C)(C)C (stereo not drawn) [exemple 38]", "%", -35),
    ("CC(C)(C)NCC(O)COc1ccc(NC(=O)Cc2ccsc2)cc1C#N (stereo not drawn) [exemple 9]", "%", -74),
    ("CC(C)NCC(O)COc1ccc(NC(=O)Cc2ccsc2)cc1Cl (stereo not drawn) [exemple 46]", "%", -44),
    ("CC(C)NCC(O)COc1ccc(NC(=O)Cc2cccs2)cc1Cl (stereo not drawn) [exemple 44]", "%", -46),
    ("CC(C)(C)NCC(O)COc1ccc(NC(=O)Cc2cccs2)cc1C#N (stereo not drawn) [exemple 7]", "%", -70),
    ("CC(C)NCC(O)COc1ccc(NC(=O)Cc2ccsc2)cc1Br (stereo not drawn) [exemple 42]", "%", -51),
]
